target: Beta-secretase 1 (Homo sapiens); test: Inhibition of human BACE1 (1 to 460 residues) expressed in baculovirus expression system at 50 uM using Rh-EVNLDAEFK-quencher as substrate after 90 mins by FRET assay
Sequence (P56817 whole entry, the tested form may be a part): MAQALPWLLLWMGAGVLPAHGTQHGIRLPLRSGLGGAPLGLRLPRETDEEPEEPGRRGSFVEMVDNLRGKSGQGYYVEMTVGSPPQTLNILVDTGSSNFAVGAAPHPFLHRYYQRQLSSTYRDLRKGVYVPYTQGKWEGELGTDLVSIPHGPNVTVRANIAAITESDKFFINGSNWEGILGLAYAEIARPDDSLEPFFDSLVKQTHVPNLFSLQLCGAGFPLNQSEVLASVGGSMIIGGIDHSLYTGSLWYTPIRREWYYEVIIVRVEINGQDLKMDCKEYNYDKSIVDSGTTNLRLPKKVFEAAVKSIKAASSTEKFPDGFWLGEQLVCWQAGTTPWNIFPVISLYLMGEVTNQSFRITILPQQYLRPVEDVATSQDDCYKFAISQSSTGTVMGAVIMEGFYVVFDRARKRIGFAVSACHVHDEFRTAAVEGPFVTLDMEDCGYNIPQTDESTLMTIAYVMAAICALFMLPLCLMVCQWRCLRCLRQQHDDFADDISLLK
readoutName: inhibition (%)
Quick reminder: number only, in %, skip the unit.

These solved cases illustrate the format of a correct answer.
{"smilesData": "COc1cc(-c2nc3ccc(Cl)cn3c2NC2CCCCC2)ccc1OCCCN1C(=O)c2ccccc2C1=O", "assayValue": 88.1}
{"smilesData": "Cc1ccn2c(NC(C)(C)C)c(-c3ccc(OCCCN4C(=O)c5ccccc5C4=O)cc3)nc2c1", "assayValue": 18.3}
{"smilesData": "CC(C)(C)Nc1c(-c2ccc(OCCCN3C(=O)c4ccccc4C3=O)cc2)nc2ccc(Br)cn12", "assayValue": 34.3}
{"smilesData": "Cc1ccn2c(NC3CCCCC3)c(-c3ccc(OCCCN4C(=O)c5ccccc5C4=O)cc3)nc2c1", "assayValue": 100}

Read the next record carefully.
[Q] Data request, read-out inhibition, for `COc1cc(-c2nc3ccc(Cl)cn3c2NC(C)(C)C)ccc1OCCCN1C(=O)c2ccccc2C1=O`
[A] 37.9

---

target: Beta-secretase 1 (Homo sapiens); assay: Inhibition of human BACE1 (1 to 460 residues) expressed in baculovirus expression system at 10 uM using Rh-EVNLDAEFK-quencher as substrate after 90 mins by FRET assay
The label depends only on inhibition: fulfilled if it is at least 30%, not fulfilled if it is smaller.

[Q] Decide: inhibition of `CC(C)(C)Nc1c(-c2ccc(OCCCN3C(=O)c4ccccc4C3=O)cc2)nc2ccc(Cl)cn12` >= 30%?
[A] not fulfilled

[Q] # repeat for `O=C1c2ccccc2C(=O)N1CCCOc1ccc(-c2nc3ccccn3c2NC2CCCCC2)cc1`
[A] not fulfilled

[Q] # repeat for `O=C1c2ccccc2C(=O)N1CCCOc1ccc(-c2nc3ccc(Cl)cn3c2NC2CCCCC2)cc1`
[A] not fulfilled

[Q] # repeat for `Cc1cccn2c(NC3CCCCC3)c(-c3ccc(OCCCN4C(=O)c5ccccc5C4=O)cc3)nc12`
[A] fulfilled

[Q] # repeat for `Cc1ccn2c(NC(C)(C)C)c(-c3ccc(OCCCN4C(=O)c5ccccc5C4=O)cc3)nc2c1`
[A] not fulfilled

[Q] # repeat for `O=C1c2ccccc2C(=O)N1CCCOc1ccc(-c2nc3ccc(Br)cn3c2NC2CCCCC2)cc1`
[A] fulfilled

[Q] # repeat for `COc1cc(-c2nc3ccc(Br)cn3c2NC2CCCCC2)ccc1OCCCN1C(=O)c2ccccc2C1=O`
[A] fulfilled

[Q] # repeat for `CC(C)(C)Nc1c(-c2ccc(OCCCN3C(=O)c4ccccc4C3=O)cc2)nc2ccc(Br)cn12`
[A] not fulfilled

[Q] # repeat for `COc1cc(-c2nc3ccc(Br)cn3c2NC(C)(C)C)ccc1OCCCN1C(=O)c2ccccc2C1=O`
[A] fulfilled

---

# inhibition values compiled below
molecular target: Beta-secretase 1 (Homo sapiens); experiment: Inhibition of human BACE1 (1 to 460 residues) expressed in baculovirus expression system at 10 uM using Rh-EVNLDAEFK-quencher as substrate after 90 mins by FRET assay
Quick reminder: number only, in %, skip the unit.

These solved cases illustrate the format of a correct answer.
{"smilesData": "COc1cc(-c2nc3ccc(Cl)cn3c2NC2CCCCC2)ccc1OCCCN1C(=O)c2ccccc2C1=O", "targetDesc": "Beta-secretase 1 (Homo sapiens)", "readoutName": "inhibition", "unitsText": "%", "assayValue": 26.9}
{"smilesData": "Cc1ccn2c(NC3CCCCC3)c(-c3ccc(OCCCN4C(=O)c5ccccc5C4=O)cc3)nc2c1", "targetDesc": "Beta-secretase 1 (Homo sapiens)", "readoutName": "inhibition", "unitsText": "%", "assayValue": 61.3}

[Q] Data request, read-out inhibition, for `Cc1ccc2nc(-c3ccc(OCCCN4C(=O)c5ccccc5C4=O)cc3)c(NC3CCCCC3)n2c1`
[A] 37.6

[Q] # repeat for `Cc1cccc2nc(-c3ccc(OCCCN4C(=O)c5ccccc5C4=O)cc3)c(NC3CCCCC3)n12`
[A] 61.5

[Q] # repeat for `COc1cc(-c2nc3ccc(Cl)cn3c2NC(C)(C)C)ccc1OCCCN1C(=O)c2ccccc2C1=O`
[A] 19.4

[Q] # repeat for `COc1cc(-c2nc3ccccn3c2NC2CCCCC2)ccc1OCCCN1C(=O)c2ccccc2C1=O`
[A] 29.3

---

The following molecules have recorded IC50 on UniProt:P56817.
Quick reminder: number only, in µM, skip the unit.

These solved cases illustrate the format of a correct answer.
{"smilesData": "Cc1cccc2nc(-c3ccc(OCCCN4C(=O)c5ccccc5C4=O)cc3)c(NC3CCCCC3)n12", "readoutName": "IC50", "unitsText": "µM", "assayValue": 5.93}
{"smilesData": "Cc1ccc2nc(-c3ccc(OCCCN4C(=O)c5ccccc5C4=O)cc3)c(NC3CCCCC3)n2c1", "readoutName": "IC50", "unitsText": "µM", "assayValue": 29.4}

Read the next record carefully.
[Q] Data request, read-out IC50, for `COc1cc(-c2nc3ccc(Cl)cn3c2NC2CCCCC2)ccc1OCCCN1C(=O)c2ccccc2C1=O`
[A] 14.9

---

target: UniProt:P56817; assay: Inhibition of human BACE1 (1 to 460 residues) expressed in baculovirus expression system at 50 uM using Rh-EVNLDAEFK-quencher as substrate after 90 mins by FRET assay
readoutName: inhibition (%)
Quick reminder: number only, in %, skip the unit.

These solved cases illustrate the format of a correct answer.
{"smilesData": "O=C1c2ccccc2C(=O)N1CCCOc1ccc(-c2nc3ccc(Br)cn3c2NC2CCCCC2)cc1", "inhibition [%]": 45.3}
{"smilesData": "COc1cc(-c2nc3ccc(Br)cn3c2NC2CCCCC2)ccc1OCCCN1C(=O)c2ccccc2C1=O", "inhibition [%]": 43.2}
{"smilesData": "O=C1c2ccccc2C(=O)N1CCCOc1ccc(-c2nc3ccc(Cl)cn3c2NC2CCCCC2)cc1", "inhibition [%]": 19.6}
{"smilesData": "COc1cc(-c2nc3ccccn3c2NC2CCCCC2)ccc1OCCCN1C(=O)c2ccccc2C1=O", "inhibition [%]": 69.5}
{"smilesData": "Cc1cccc2nc(-c3ccc(OCCCN4C(=O)c5ccccc5C4=O)cc3)c(NC3CCCCC3)n12", "inhibition [%]": 87.9}

[Q] Data request, read-out inhibition, for `Cc1ccc2nc(-c3ccc(OCCCN4C(=O)c5ccccc5C4=O)cc3)c(NC3CCCCC3)n2c1`
[A] 63.7

[Q] # repeat for `CC(C)(C)Nc1c(-c2ccc(OCCCN3C(=O)c4ccccc4C3=O)cc2)nc2ccc(Cl)cn12`
[A] 33

[Q] # repeat for `COc1cc(-c2nc3ccc(Br)cn3c2NC(C)(C)C)ccc1OCCCN1C(=O)c2ccccc2C1=O`
[A] 48.7

[Q] # repeat for `Cc1cccn2c(NC3CCCCC3)c(-c3ccc(OCCCN4C(=O)c5ccccc5C4=O)cc3)nc12`
[A] 69.4

Data origin, for the record: ChEMBL document CHEMBL4190277
